The following sequences are shown together with reported PBM binding z-score values.
# Test system: THRa:RXRa (NR concentration 90 nM, RXRa partner concentration 90 nM)
# testDescription: PBM binding z-score (relative to random genomic background probes); higher = stronger binding; sequences stand for … in GC…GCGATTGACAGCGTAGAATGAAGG
Just the number, please.

Example cases with answers are listed next.
sequenceinput=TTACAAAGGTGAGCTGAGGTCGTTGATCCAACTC studytarget="THRa:RXRa (NR concentration 90 nM, RXRa partner concentration 90 nM)" val=4.84
sequenceinput=CTATGTAGGTTAAGGGGGACATTCAGTTTGAAAG studytarget="THRa:RXRa (NR concentration 90 nM, RXRa partner concentration 90 nM)" val=2.23
sequenceinput=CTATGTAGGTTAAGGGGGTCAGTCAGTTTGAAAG studytarget="THRa:RXRa (NR concentration 90 nM, RXRa partner concentration 90 nM)" val=3.17

Please look up its PBM binding z-score: `ATCTAAAGGTCGAAGGTGAGTATACCCACCCGAA` 2.21

Please look up its PBM binding z-score: `CGAACTAGGTCACCAGGACAGGGAAGAGGTTGGA` 3.26

Please look up its PBM binding z-score: `ATCGAAAGGTCGTGAGGTGAGTTTACAGAAAGGC` 3.57

Please look up its PBM binding z-score: `CCTACTGGGCCAAGGTCTTTGATCAGTCAAAGCA` 0.0825

Please look up its PBM binding z-score: `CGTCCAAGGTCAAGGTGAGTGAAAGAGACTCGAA` 3.8

Please look up its PBM binding z-score: `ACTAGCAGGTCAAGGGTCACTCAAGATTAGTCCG` 4.04

Please look up its PBM binding z-score: `ACTAGGAGGACAAAGGTCAGAGCTACGCCAGTGA` 3.37

Please look up its PBM binding z-score: `AGAATGAGGTTACACGTAGATCAGGGAAGAAAGT` 2.75

Please look up its PBM binding z-score: `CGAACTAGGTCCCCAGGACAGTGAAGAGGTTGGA` 0.965

---

The following sequences are shown together with reported PBM binding z-score values.
# Test system: LXRa:RXRa (NR concentration 270 nM, RXRa partner concentration 90 nM)
# testDescription: PBM binding z-score (relative to random genomic background probes); higher = stronger binding; sequences stand for … in GC…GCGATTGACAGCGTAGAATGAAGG
Just the number, please.

sequenceinput=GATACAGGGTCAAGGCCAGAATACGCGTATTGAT endpoint="PBM binding z-score" val=4.25
sequenceinput=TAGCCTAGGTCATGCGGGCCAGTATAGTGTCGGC endpoint="PBM binding z-score" val=3.16
sequenceinput=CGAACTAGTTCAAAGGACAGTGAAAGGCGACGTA endpoint="PBM binding z-score" val=-0.0127
sequenceinput=CCTACTGGGCCAAAAATGTCATTGATGCCGATAA endpoint="PBM binding z-score" val=-0.771
sequenceinput=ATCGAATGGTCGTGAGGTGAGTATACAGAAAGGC endpoint="PBM binding z-score" val=-0.131
sequenceinput=CTATGTAGGGTAAGGGGGTCATTCAGTTTGAAAG endpoint="PBM binding z-score" val=4.71
sequenceinput=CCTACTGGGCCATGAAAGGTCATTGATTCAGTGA endpoint="PBM binding z-score" val=4.74
sequenceinput=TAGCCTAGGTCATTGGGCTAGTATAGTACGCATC endpoint="PBM binding z-score" val=3.19
sequenceinput=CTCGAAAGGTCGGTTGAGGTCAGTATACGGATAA endpoint="PBM binding z-score" val=5.23
sequenceinput=CTATGTAGGTTAAGGGGGTCAATCAGTTTGAAAG endpoint="PBM binding z-score" val=4.86

Please look up its PBM binding z-score: `GGAACGAGGGCATTCGAGTTGATAGCATGGCGAT` 1.46

Please look up its PBM binding z-score: `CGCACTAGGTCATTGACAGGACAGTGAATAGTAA` 3.31

Just for reference, the supplement of paper PMC6555819 is where these values come from.
